Every entry's value here was drawn from patent US7141570B2.

# Test system: S. aureus (SAUR 31583)
For each of the compounds below, state its MIC.
Numbers only, in µg/mL.

// solved cases for MIC follow
| query smiles | unit spec | MIC |
| --- | --- | --- |
| CCC(=S)NC[C@H]1CN(c2ccc(N3CCN(C(=O)COc4ccc(CN(C)C)cc4)CC3)c(F)c2)C(=O)O1 | µg/mL | 16 |
| CCC(=S)NC[C@H]1CN(c2ccc(N3CCN(C(=O)COc4ccc(CN5CCN(C)CC5)cc4)CC3)c(F)c2)C(=O)O1 | µg/mL | 32 |
| CCN(CC)Cc1ccc(OCC(=O)N2CCN(c3ccc(N4C[C@H](CNC(=S)C5CC5)OC4=O)cc3F)CC2)cc1 | µg/mL | 8 |

Continue with the compound presented below.
Given CCC(=S)NC[C@H]1CN(c2ccc(N3CCN(C(=O)COc4ccc(CN5CCOCC5)cc4)CC3)c(F)c2)C(=O)O1 , report its MIC on S. aureus (SAUR 31583).
32
